# experiment.summary: Cytotoxicity against Huh7 cells expressing HCV con1 replicon
# Format: cell-based, Huh-7
# test.conditions: human
Reported CC50 by item:

The cases that follow already have their CC50 on record.
- molecule: "OCc1ncnc2c1ncn2[C@H]1O[C@@H](CO)[C@H](O)[C@@H]1O"
  CC50: "> 500 µM"
- molecule: "OC[C@@H]1O[C@H](n2cnc3c(-c4ccccc4)ncnc32)[C@@H](O)[C@H]1O"
  CC50: "> 50 µM"
- molecule: "OC[C@@H]1O[C@H](n2cnc3c(Cc4ccccc4)ncnc32)[C@@H](O)[C@H]1O"
  CC50: "> 500 µM"
- molecule: "CCc1ncnc2c1ncn2[C@H]1O[C@@H](CO)[C@H](O)[C@@H]1O"
  CC50: "> 500 µM"
- molecule: "OC[C@@H]1O[C@H](n2cnc3c(-c4ccsc4)ncnc32)[C@@H](O)[C@H]1O"
  CC50: "> 50 µM"
- molecule: "Cc1ncnc2c1ncn2[C@H]1O[C@@H](CO)[C@H](O)[C@@H]1O"
  CC50: "> 500 µM"
- molecule: "COc1ccc(-c2ncnc3c2ncn3[C@H]2OC(CO)[C@H](O)[C@@H]2O)cc1 (single isomer, unassigned)"
  CC50: "> 100 µM"
- molecule: "OC[C@@H]1O[C@H](n2cnc3c(-c4ccco4)ncnc32)[C@@H](O)[C@H]1O"
  CC50: "> 100 µM"

# context switch: different molecule, same CC50
// recorded CC50 for OC[C@H]1O[C@H](n2cnc3c(-c4cccs4)ncnc32)[C@@H](O)[C@H]1O : > 100 µM

* * *

# experiment.summary: Cytotoxicity against MT4 cells
# Type: cell-based
# test.conditions: human
recorded.endpoint: CC50

- record.smiles: "OC[C@H]1O[C@H](n2cnc3c(-c4cccs4)ncnc32)[C@@H](O)[C@H]1O"
  CC50: "> 100 µM"

Shift focus to the following entry.
// OC[C@@H]1O[C@H](n2cnc3c(Cc4ccccc4)ncnc32)[C@@H](O)[C@H]1O : CC50 value = > 500 µM
